assayProtocol: Dissolution, USP dissolution apparatus 2, 900 mL 0.0033 N hydrochloric acid, 0 rpm, 37° C.
Type: physicochemical
conditionSummary: basic and amphoteric drugs in formulations according to the invention (Table 32); 30 minutes; 0 rpm
Where a name gives a salt, the structure may show the parent alone.
Listed here are compounds together with their documented % dissolved in 900 mL 0.0033 N HCl.
Write the answer as a number in %, unit excluded.

compound	% dissolved in 900 mL 0.0033 N HCl, %
Cc1nccn1CC1CCc2c(c3ccccc3n2C)C1=O (centres unmarked) [Ondansetron hydrochloride]	85
Cc1ccc(-c2nc3ccc(C)cn3c2CC(=O)N(C)C)cc1 [Zolpidem tartrate]	96
COc1cccc(C2(O)CCCCC2CN(C)C)c1 (centres unmarked) [Tramadol hydrochloride]	100
CN(C)CCc1c[nH]c2ccc(C[C@H]3COC(=O)N3)cc12	96

Now take the following compound into account.
*Q* Could you tell me which % dissolved in 900 mL 0.0033 N HCl is on file for CN(C)CCc1c[nH]c2ccc(Cn3cncn3)cc12 [Rizatriptan benzoate] ?
*A* 100
